The measurements presented in this section are drawn from ChEMBL document CHEMBL3232910.

What pIC50 was measured for each of the following?
molecular target: Tyrosine-protein phosphatase non-receptor type 1 (Homo sapiens); test: Inhibition of recombinant PTP1B (unknown origin) using p-nitrophenyl phosphate as substrate assessed as inhibition of release of p-nitrophenol preincubated for 10 mins measured before substrate addition after 30 mins by spectrophotometry
Sequence (P18031 whole entry): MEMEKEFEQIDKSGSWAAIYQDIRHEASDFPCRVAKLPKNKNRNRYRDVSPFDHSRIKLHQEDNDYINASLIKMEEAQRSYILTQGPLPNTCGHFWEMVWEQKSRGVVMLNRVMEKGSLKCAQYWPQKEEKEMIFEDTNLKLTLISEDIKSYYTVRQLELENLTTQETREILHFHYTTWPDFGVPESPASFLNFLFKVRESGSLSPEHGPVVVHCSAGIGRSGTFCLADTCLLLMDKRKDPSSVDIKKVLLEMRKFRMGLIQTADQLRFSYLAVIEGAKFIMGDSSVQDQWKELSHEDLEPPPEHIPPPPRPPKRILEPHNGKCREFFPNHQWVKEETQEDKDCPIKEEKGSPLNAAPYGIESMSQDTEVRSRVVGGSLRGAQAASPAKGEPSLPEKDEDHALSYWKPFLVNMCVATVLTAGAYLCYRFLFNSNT
Answers are plain numbers, as −log10 of the molar value.

# annotated cases, reported pIC50 shown
# SAMPLE_SMILES, pIC50
measured = [
    ("CC1(C)CC[C@]2(C(=O)O[C@@H]3O[C@H](CNC(=O)c4ccccc4C(=O)O)[C@@H](O)[C@H](O)[C@H]3O)CC[C@]3(C)C(=CC[C@@H]4[C@@]5(C)CC[C@H](O[C@@H]6OC[C@@H](O)[C@H](O)[C@H]6O)C(C)(C)[C@@H]5CC[C@]43C)[C@@H]2C1", 4.78),
    ("CC1(C)CC[C@]2(C(=O)O[C@@H]3O[C@H](CNC(=O)c4ccccc4C(=O)O)[C@@H](O)[C@H](O)[C@H]3O)CC[C@]3(C)C(=CC[C@@H]4[C@@]5(C)CC[C@H](O[C@@H]6O[C@H](CO)[C@@H](O[C@@H]7O[C@H](CO)[C@H](O)[C@H](O)[C@H]7O)[C@H](O)[C@H]6O)C(C)(C)[C@@H]5CC[C@]43C)[C@@H]2C1", 5.99),
    ("C[C@@H]1O[C@@H](O[C@H]2CC[C@]3(C)[C@H]4CC=C5[C@@H]6CC(C)(C)CC[C@]6(C(=O)O[C@@H]6O[C@H](CNC(=O)c7ccccc7C(=O)O)[C@@H](O)[C@H](O)[C@H]6O)CC[C@@]5(C)[C@]4(C)CC[C@H]3C2(C)C)[C@@H](O)[C@H](O)[C@@H]1O", 4.98),
    ("CC1(C)CC[C@]2(C(=O)O[C@@H]3O[C@H](CNC(=O)c4ccccc4C(=O)O)[C@@H](O)[C@H](O)[C@H]3O)CC[C@]3(C)C(=CC[C@@H]4[C@@]5(C)CC[C@H](O[C@@H]6O[C@H](CO)[C@@H](O[C@@H]7O[C@H](CO)[C@@H](O)[C@H](O)[C@H]7O)[C@H](O)[C@H]6O)C(C)(C)[C@@H]5CC[C@]43C)[C@@H]2C1", 6.11),
    ("C[C@@H]1O[C@@H](O[C@H]2CC[C@]3(C)[C@H]4CC=C5[C@@H]6CC(C)(C)CC[C@]6(C(=O)O[C@@H]6O[C@H](CNC(=O)c7ccccc7C(=O)O)[C@@H](O)[C@H](O)[C@H]6O)CC[C@@]5(C)[C@]4(C)CC[C@H]3C2(C)C)[C@H](O)[C@H](O)[C@H]1O", 4.58),
]

--- query ---
Any idea what pIC50 was measured for `CC1(C)CC[C@]2(C(=O)O[C@@H]3O[C@H](CNC(=O)c4ccccc4C(=O)O)[C@@H](O)[C@H](O)[C@H]3O)CC[C@]3(C)C(=CC[C@@H]4[C@@]5(C)CC[C@H](O[C@@H]6O[C@H](CO)[C@@H](O)[C@H](O)[C@H]6O)C(C)(C)[C@@H]5CC[C@]43C)[C@@H]2C1` ? 4.76

----------
Target: Tyrosine-protein phosphatase non-receptor type 2 (Homo sapiens)
Sequence (P17706 whole entry): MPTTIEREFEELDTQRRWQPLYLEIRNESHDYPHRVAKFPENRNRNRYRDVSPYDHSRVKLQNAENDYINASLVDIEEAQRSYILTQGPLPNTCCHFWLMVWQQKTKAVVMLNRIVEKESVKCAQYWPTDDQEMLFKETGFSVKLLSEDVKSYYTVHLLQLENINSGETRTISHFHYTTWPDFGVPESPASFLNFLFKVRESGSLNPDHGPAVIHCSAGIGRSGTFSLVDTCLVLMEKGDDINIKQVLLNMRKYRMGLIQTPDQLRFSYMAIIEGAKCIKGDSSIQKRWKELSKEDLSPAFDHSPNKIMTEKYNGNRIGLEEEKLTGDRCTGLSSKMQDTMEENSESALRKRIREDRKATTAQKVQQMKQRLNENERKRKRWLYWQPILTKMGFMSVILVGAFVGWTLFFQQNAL
Can you tell me pIC50 for the items I'm about to list?
One number for each entry, as −log10 of the molar value.

Examples with answers:
# SAMPLE_SMILES, pIC50
data = [
    ("CC1(C)CC[C@]2(C(=O)O[C@@H]3O[C@H](CNC(=O)c4ccccc4C(=O)O)[C@@H](O)[C@H](O)[C@H]3O)CC[C@]3(C)C(=CC[C@@H]4[C@@]5(C)CC[C@H](O[C@@H]6OC[C@H](O)[C@H](O)[C@H]6O)C(C)(C)[C@@H]5CC[C@]43C)[C@@H]2C1", 4.91),
    ("CC1(C)CC[C@]2(C(=O)O[C@@H]3O[C@H](CNC(=O)c4ccccc4C(=O)O)[C@@H](O)[C@H](O)[C@H]3O)CC[C@]3(C)C(=CC[C@@H]4[C@@]5(C)CC[C@H](O[C@@H]6O[C@H](CO[C@@H]7O[C@H](CO)[C@@H](O)[C@H](O)[C@H]7O)[C@@H](O)[C@H](O)[C@H]6O)C(C)(C)[C@@H]5CC[C@]43C)[C@@H]2C1", 5.53),
    ("CC1(C)CC[C@]2(C(=O)O[C@@H]3O[C@H](CNC(=O)c4ccccc4C(=O)O)[C@@H](O)[C@H](O)[C@H]3O)CC[C@]3(C)C(=CC[C@@H]4[C@@]5(C)CC[C@H](O[C@@H]6O[C@H](CO)[C@H](O)[C@H](O)[C@H]6O)C(C)(C)[C@@H]5CC[C@]43C)[C@@H]2C1", 4.84),
]

We now examine a further compound.
What value of measured pIC50 is listed for `C[C@@H]1O[C@@H](O[C@H]2CC[C@]3(C)[C@H]4CC=C5[C@@H]6CC(C)(C)CC[C@]6(C(=O)O[C@@H]6O[C@H](CNC(=O)c7ccccc7C(=O)O)[C@@H](O)[C@H](O)[C@H]6O)CC[C@@]5(C)[C@]4(C)CC[C@H]3C2(C)C)[C@@H](O)[C@H](O)[C@@H]1O` ? 5.06
